Measured IC50 ratio (mutant/wt), listed per entry.
- Assay system: T1, DcR2-IgG (UniProt Q9UBN6 56-211)
- T1 sequence (Q9UBN6 whole entry, species assumed, looked up): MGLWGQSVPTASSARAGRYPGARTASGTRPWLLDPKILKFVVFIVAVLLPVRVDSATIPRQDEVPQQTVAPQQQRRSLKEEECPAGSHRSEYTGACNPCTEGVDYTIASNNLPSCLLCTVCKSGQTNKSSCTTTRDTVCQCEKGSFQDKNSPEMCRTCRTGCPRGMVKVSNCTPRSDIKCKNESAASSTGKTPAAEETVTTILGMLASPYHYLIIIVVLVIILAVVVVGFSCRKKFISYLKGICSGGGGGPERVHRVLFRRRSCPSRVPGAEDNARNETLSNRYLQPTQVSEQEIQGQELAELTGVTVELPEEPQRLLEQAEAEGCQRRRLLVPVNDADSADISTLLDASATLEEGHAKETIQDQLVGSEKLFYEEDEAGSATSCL
- Protocol: AlphaQuest (CARB-AQ) displacement of biotinylated Apo2L/TRAIL from receptor-IgG; against Flag-Apo2L.WT

Binder	Value units	IC50 ratio (mutant/wt)
Flag.Apo2L.DR5-1 (ligand, not shown: N-terminal flag tag from pFLAG-MAC) VRERGPQRVAAHITGTRGRSNTLSSPNSKNEKALGRKINSWESSRSGHSFLSNLHLRNGELVIHEKGFYYIYSQTAFKFKEEIKENTKNDKQMVQYIYKYTSYPDPILLMKSARNSCWSKDAEYGLYSIYQGGIFELKENDRIFVSVTNEALIDMDHEASFFGAFLVG	ratio	32
Flag.Apo2L.DR4-9 (ligand, not shown: N-terminal flag tag from pFLAG-MAC) VRERGPQRVAAHITGTRGRSNTLSSPNSKNEKALGRKINSWESSRSGHSFLSNLHLRNGELVIHEKGFYYIYSQTAFRFSEEIKERTRNDKQMVQYIYKWTDYPDPILLMKSARNSCWSKDAEYGLYSIYQGGIFELKENDRIFVSVTNEHLIDMDHEASFFGAFLVG	ratio	18
Flag.Apo2L.DR5-21 (ligand, not shown: N-terminal flag tag from pFLAG-MAC) VRERGPQRVAAHITGTRGRSNTLSSPNSKNEKALGRKINSWESSRSGHSFLSNLHLRNGELVIHEKGFYYIYSQTAFKFKEEIKENTKNDKQMVQYIYKYTSYPDPILLMKSARNSCWSKDAEYGLYSIYQGGIFELKENDRIFVSVTNEDLLNMEHEASFFGAFLVG	ratio	9.4
